# experimental-system: TBK1 (Homo sapiens (Human))
# Sequence (Q9UHD2 whole entry, species assumed): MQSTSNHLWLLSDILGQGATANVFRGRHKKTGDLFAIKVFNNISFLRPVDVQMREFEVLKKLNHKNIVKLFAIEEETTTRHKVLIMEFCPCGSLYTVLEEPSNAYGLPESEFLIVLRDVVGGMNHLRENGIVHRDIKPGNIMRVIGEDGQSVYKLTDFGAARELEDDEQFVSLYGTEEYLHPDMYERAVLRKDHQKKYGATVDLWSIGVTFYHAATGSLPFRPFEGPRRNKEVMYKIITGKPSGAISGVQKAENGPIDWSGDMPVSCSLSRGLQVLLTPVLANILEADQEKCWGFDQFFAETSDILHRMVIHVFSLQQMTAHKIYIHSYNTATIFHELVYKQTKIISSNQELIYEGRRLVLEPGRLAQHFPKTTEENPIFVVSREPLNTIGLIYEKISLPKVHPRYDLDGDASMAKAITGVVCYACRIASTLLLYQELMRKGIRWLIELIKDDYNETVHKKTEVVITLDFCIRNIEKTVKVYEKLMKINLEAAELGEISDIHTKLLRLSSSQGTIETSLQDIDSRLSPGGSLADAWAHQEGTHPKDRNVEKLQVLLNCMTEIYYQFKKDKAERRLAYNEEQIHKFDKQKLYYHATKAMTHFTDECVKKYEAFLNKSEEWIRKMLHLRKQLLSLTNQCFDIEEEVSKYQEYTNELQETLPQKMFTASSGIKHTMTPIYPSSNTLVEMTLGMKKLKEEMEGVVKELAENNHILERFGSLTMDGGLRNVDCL
pIC50: −log10 of the molar value. Where a name gives a salt, the structure may show the parent alone.
As shown below, each of these compounds has a reported pIC50 value.

Examples with their reported pIC50 follow.
compound=COc1nc(Nc2cc(-c3ccc(O[C@H]4CCN(C(=O)CO)C[C@H]4F)c(C#N)c3)ncn2)ccc1C(=O)N(C)C measure=pIC50 measured="> 7.00"
compound=COc1nc(Nc2cc(-c3ccc(O[C@@H]4CCN(C(=O)[C@@H](C)O)CC4(F)F)c(C#N)c3)ncn2)ccc1N1CCN(C2COC2)C[C@@H]1C measure=pIC50 measured="> 7.00"
compound="COc1nc(Nc2cc(-c3ccc(OC4CCN(C(=O)C(C)O)CC4)c(C#N)c3)ncn2)ccc1N1CCN(C)CC1 (centres unmarked)" measure=pIC50 measured="> 7.00"
compound=COc1nc(Nc2cc(-c3ccc(OC4CCOCC4)c(C#N)c3)ncn2)ccc1CNC1CCN(C)CC1 measure=pIC50 measured="> 7.00"
compound="COc1nc(Nc2cc(-c3ccc(OC4CCN(C(=O)[C@@H](C)O)CC4(F)F)c(C#N)c3)ncn2)ccc1N1CCN(C)C[C@H]1C (some centres unmarked) [Example 66, hydrochloride]" measure=pIC50 measured="> 7.00"
compound=COc1cc(Nc2cc(-c3ccc(OC4CCOCC4)c(C#N)c3)ncn2)cnc1C(=O)N(C)C measure=pIC50 measured="5.30 to 6.00"

Entry under review: COc1nc(Nc2cc(-c3cnc(OC4CCOCC4)c(C#N)c3)ncn2)ccc1C(=O)N(C)C [Example 9, hydrochloride] . Reported pIC50? > 7.00

Entry under review: COc1nc(Nc2cc(-c3ccc(OC4CCOCC4)c(C#N)c3)ncn2)ccc1C1CCN(CC(F)F)CC1 . Reported pIC50? > 7.00

Entry under review: COc1nc(Nc2cc(-c3ccc(O[C@@H]4CCN(C(=O)[C@H](C)O)CC4(F)F)c(C#N)c3)ncn2)ccc1C1CCN(C2COC2)CC1 . Reported pIC50? > 7.00

Entry under review: COc1nc(Nc2cc(-c3ccc(OC4CCOCC4)c(C#N)c3)ncn2)ccc1C(=O)NCCO . Reported pIC50? > 7.00

Entry under review: COc1nc(Nc2cc(-c3ccc(OC4CCOCC4)c(C#N)c3)ncn2)ccc1C(=O)NC1CN2CCC1CC2 (centres unmarked) . Reported pIC50? > 7.00

Entry under review: COc1nc(Nc2cc(-c3ccc(OC4CCOCC4)c(C#N)c3)ncn2)ccc1C(=O)NC1CCN(C)CC1 [Example 7, hydrochloride] . Reported pIC50? > 7.00

Entry under review: COc1cc(Nc2cc(-c3ccc(OC4CCOCC4)c(C#N)c3)ncn2)cnc1N1CCN(C)CC1 . Reported pIC50? 6.00 to 7.00

Entry under review: COc1nc(Nc2cc(-c3cc(C#N)c(OC4CCOCC4)cn3)ncn2)ccc1C(=O)N(C)C . Reported pIC50? > 7.00
